Measured IC50 of individual entries
target: PI3Kγ (Mus musculus); construct: endogenous in cells; experiment: ELISA assay for PI3Kγ: in-cell ELISA, phosphorylation of AKT (Ser473) in RAW 264.7 cells; conditions: cellular, pAKT (Ser473), C5a stimulation, read-out: IC50 p110γ
Sequence (Q9JHG7 whole entry): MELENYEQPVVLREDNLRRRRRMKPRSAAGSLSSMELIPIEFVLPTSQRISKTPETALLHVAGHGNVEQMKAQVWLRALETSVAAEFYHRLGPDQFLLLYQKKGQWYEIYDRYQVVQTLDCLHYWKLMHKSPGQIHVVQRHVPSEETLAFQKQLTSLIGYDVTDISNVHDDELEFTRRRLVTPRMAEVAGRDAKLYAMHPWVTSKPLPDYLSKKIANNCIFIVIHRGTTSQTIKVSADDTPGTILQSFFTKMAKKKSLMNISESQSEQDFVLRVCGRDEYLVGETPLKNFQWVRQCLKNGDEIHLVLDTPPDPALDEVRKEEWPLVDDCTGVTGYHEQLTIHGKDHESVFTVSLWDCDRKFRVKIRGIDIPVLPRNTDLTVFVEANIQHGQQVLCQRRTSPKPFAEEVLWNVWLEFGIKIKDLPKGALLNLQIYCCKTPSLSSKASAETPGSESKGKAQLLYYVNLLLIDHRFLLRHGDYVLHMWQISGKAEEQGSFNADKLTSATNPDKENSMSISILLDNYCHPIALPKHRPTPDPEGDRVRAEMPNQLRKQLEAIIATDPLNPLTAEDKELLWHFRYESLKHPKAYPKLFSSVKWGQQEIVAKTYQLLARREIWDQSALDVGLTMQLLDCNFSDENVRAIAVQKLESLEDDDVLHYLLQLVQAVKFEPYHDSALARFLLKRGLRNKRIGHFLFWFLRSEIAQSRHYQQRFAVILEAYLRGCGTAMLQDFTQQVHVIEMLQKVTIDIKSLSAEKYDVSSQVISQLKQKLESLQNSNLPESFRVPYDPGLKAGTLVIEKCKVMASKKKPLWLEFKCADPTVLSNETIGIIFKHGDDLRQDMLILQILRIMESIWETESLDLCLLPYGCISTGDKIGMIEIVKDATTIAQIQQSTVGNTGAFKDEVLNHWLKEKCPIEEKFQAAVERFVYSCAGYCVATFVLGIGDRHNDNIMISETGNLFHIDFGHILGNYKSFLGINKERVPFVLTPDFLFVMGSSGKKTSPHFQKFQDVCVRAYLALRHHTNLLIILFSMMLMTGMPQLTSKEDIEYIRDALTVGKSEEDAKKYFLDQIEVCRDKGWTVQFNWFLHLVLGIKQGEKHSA
assay-endpoint: IC50

INSERT INTO results (molecule, assay_value) VALUES
  ('Cn1cc(-c2ccccc2CC(C)(C)Nc2nc(N3CCOCC3)nc(-n3c(C(F)F)nc4ccccc43)n2)cn1 [Compound A45]', '≤ 100 nM'),
  ('CN1CCN(c2cc(-c3ccccc3CC(C)(C)Nc3nc(N4CCOCC4)nc(-n4c(C(F)F)nc5ccccc54)n3)ccn2)CC1 [Compound A64]', '> 500 nM'),
  ('CC(C)(Cc1ccccc1F)Nc1nc(N2CCOCC2)nc(-n2c(C(F)F)nc3ccccc32)n1 [Compound A15]', '200 to 500 nM'),
  ('CC(C)N1CCC(c2ccccc2CC(C)(C)Nc2nc(N3CCOCC3)nc(-n3c(C(F)F)nc4ccccc43)n2)CC1 [Compound A71]', '> 500 nM'),
  ('CC(C)(Cc1ccccc1-c1cccnc1F)Nc1nc(N2CCOCC2)nc(-n2c(C(F)F)nc3ccccc32)n1 [Compound A62]', '200 to 500 nM'),
  ('CC(C)(Cc1ccccc1)Nc1nc(N2CCOCC2)nc(-n2c(C(F)F)nc3ccccc32)n1 [Compound A14]', '200 to 500 nM'),
  ('COc1ccc(-c2ccccc2CC(C)(C)Nc2nc(N3CCOCC3)nc(-n3c(C(F)F)nc4ccccc43)n2)cc1 [Compound A67]', '> 500 nM'),
  ('CC(C)(Cc1ccccc1-c1ccccc1F)Nc1nc(N2CCOCC2)nc(-n2c(C(F)F)nc3ccccc32)n1 [Compound A59]', '> 500 nM'),
  ('CC(C)(Cc1ccccc1-c1cccc(CN2CCOCC2)c1)Nc1nc(N2CCOCC2)nc(-n2c(C(F)F)nc3ccccc32)n1 [Compound A65]', '200 to 500 nM'),
  ('COc1cc(-c2ccccc2CC(C)(C)Nc2nc(N3CCOCC3)nc(-n3c(C(F)F)nc4ccccc43)n2)ccn1 [Compound A41]', '> 500 nM'),
  ('CC(C)(Cc1ccccc1C1CCNC1)Nc1nc(N2CCOCC2)nc(-n2c(C(F)F)nc3ccccc32)n1 (stereo not shown) [Compound A74]', '200 to 500 nM'),
  ('CC(C)(Cc1cccc(F)c1)Nc1nc(N2CCOCC2)nc(-n2c(C(F)F)nc3ccccc32)n1 [Compound A39]', '100 to 200 nM'),
  ('COc1cc(CC(C)(C)Nc2nc(N3CCOCC3)nc(-n3c(C(F)F)nc4ccccc43)n2)ccc1F [Compound A50]', '200 to 500 nM'),
  ('CC(C)(Cc1ccccc1-c1cn[nH]c1)Nc1nc(N2CCOCC2)nc(-n2c(C(F)F)nc3ccccc32)n1 [Compound A44]', '≤ 100 nM'),
  ('CC(C)(Cc1ccccc1-c1cccnc1)Nc1nc(N2CCOCC2)nc(-n2c(C(F)F)nc3ccccc32)n1 [Compound A40]', '200 to 500 nM'),
  ('CCN1CCC(c2ccccc2CC(C)(C)Nc2nc(N3CCOCC3)nc(-n3c(C(F)F)nc4ccccc43)n2)CC1 [Compound A70]', '> 500 nM'),
  ('CC(=O)N1CCC(c2ccccc2CC(C)(C)Nc2nc(N3CCOCC3)nc(-n3c(C(F)F)nc4ccccc43)n2)CC1 [Compound A72]', '≤ 100 nM'),
  ('Cc1cc(-c2ccccc2CC(C)(C)Nc2nc(N3CCOCC3)nc(-n3c(C(F)F)nc4ccccc43)n2)ccn1 [Compound A43]', '200 to 500 nM'),
  ('CC(C)(Cc1ccccc1Cl)Nc1nc(N2CCOCC2)nc(-n2c(C(F)F)nc3ccccc32)n1 [Compound A16]', '> 500 nM'),
  ('Cn1nccc1-c1ccccc1CC(C)(C)Nc1nc(N2CCOCC2)nc(-n2c(C(F)F)nc3ccccc32)n1 [Compound A46]', '200 to 500 nM'),
  ('CC(C)(Cc1ccccc1-c1ccccc1Cl)Nc1nc(N2CCOCC2)nc(-n2c(C(F)F)nc3ccccc32)n1 [Compound A61]', '> 500 nM'),
  ('CC(C)(Cc1ccc(F)cc1)Nc1nc(N2CCOCC2)nc(-n2c(C(F)F)nc3ccccc32)n1 [Compound A22]', '200 to 500 nM'),
  ('CC(C)(Cc1ccccc1C1CCN(S(C)(=O)=O)CC1)Nc1nc(N2CCOCC2)nc(-n2c(C(F)F)nc3ccccc32)n1 [Compound A73]', '≤ 100 nM'),
  ('COc1cccc(CC(C)(C)Nc2nc(N3CCOCC3)nc(-n3c(C(F)F)nc4ccccc43)n2)c1 [Compound A21]', '200 to 500 nM'),
  ('Cc1cccc(CC(C)(C)Nc2nc(N3CCOCC3)nc(-n3c(C(F)F)nc4ccccc43)n2)c1 [Compound A49]', '200 to 500 nM'),
  ('CN(C)CCCc1ccccc1CC(C)(C)Nc1nc(N2CCOCC2)nc(-n2c(C(F)F)nc3ccccc32)n1 [Compound A76]', '> 500 nM'),
  ('COc1cccc(-c2ccccc2CC(C)(C)Nc2nc(N3CCOCC3)nc(-n3c(C(F)F)nc4ccccc43)n2)c1 [Compound A66]', '> 500 nM'),
  ('CN1CCC(c2ccccc2CC(C)(C)Nc2nc(N3CCOCC3)nc(-n3c(C(F)F)nc4ccccc43)n2)C1 (stereo not shown) [Compound A75]', '100 to 200 nM');
